Hey, just so you know, these numbers are from a melting point compilation (Tetko et al.; mined from patent text by program, amines drawn as free bases though some values may be those of a salt).

PROPERTY_MEASURED: melting point

Solved entries (count: 3):
CC(C)(COc1c(-c2ccccc2)c(=O)oc2ccccc12)CN1CCOCC1 :: 167 °C
O=C1CCN(c2ccc(C=C3SC(=O)NC3=O)cc2Br)CC1 :: > 210 °C
CCSc1nc2c(C)sc(C(=O)O)c2n1Cc1ccc(-c2ccccc2-c2nnnn2C(c2ccccc2)(c2ccccc2)c2ccccc2)cc1 :: 138 to 140 °C

Next up:
Req: Sample `C=CCc1cc(C(=O)c2ccccc2)c(O)cc1OCCCCC#N` — what was its melting point?
Resp: 60 to 62 °C

----------
Each record here notes measured melting point.

Solved entries (count: 10):
COC(=O)c1cccc(-c2cccc(Oc3ccc(Cl)c(Cl)c3)n2)c1 :: 133 to 134 °C
O=C(Nc1ccc(Oc2ccnc(-n3ccnc3)n2)c2ccccc12)c1cc(F)cc(N2CCOCC2)c1 :: 153 to 154 °C
CC(C)(C)OC(=O)NCCCc1ccc2c(n1)NCCC2 :: 95.2 to 96.3 °C
NCCn1c(-c2ccc(Br)cc2)csc1=Nc1ccccc1 :: 58 to 61 °C
COc1ccc2[nH]c(Br)c(CCNC(=O)C3CC3)c2c1 :: 82 to 83 °C
CCOC(=O)CN(CCN(CCN1CC(=O)OC(=O)C1)CC(=O)O)CC(=O)O :: 195 to 196 °C
CCOC(=O)C1=C(CO)NC(C)=C(C(=O)OCCOCc2ccccc2)C1c1ccccc1[N+](=O)[O-] (stereo unspecified) :: 96 to 97 °C
COC(=O)C(O)c1ccccc1Nc1c(Cl)cccc1Cl (stereo unspecified) :: 123 to 124 °C
COC1CCN(C(=O)COc2cc(-c3ccccc3)nc3ccccc23)CC1 :: 96 °C
CCCCCCc1cc2c(cc1OCCCC(=O)O)C(=O)C(C)(C)C2 :: 82 °C

Req: Sample `O=c1c2c(CCc3ccncc3)n[nH]c2c2cccnc2n1-c1ccccc1` — what was its melting point?
Resp: 267 to 269 °C

Req: Sample `COc1cccc(Cc2cc(OC)ccc2O)c1` — what was its melting point?
Resp: 116 to 118 °C

Req: Sample `CCOC(=O)C1CCN(c2nc(COc3ccc(COc4nn(-c5ccccc5)cc4C=O)cc3OC)c(C)s2)CC1` — what was its melting point?
Resp: 126 to 127 °C

Req: Sample `CN(CCc1ccccc1)C1CCN(C(=O)c2ccc(-n3cncn3)nc2)CC1` — what was its melting point?
Resp: 85 to 86 °C

Req: Sample O=C(CN1CCN(CC2CCn3c(nc4ccccc43)S2)CC1)N1CCCC1 (stereo unspecified) — what was its melting point?
Resp: 159 to 162 °C

Req: Sample `COc1ccc(C=Cc2cccc(C(=O)O)c2)cc1OC1CCCC1` — what was its melting point?
Resp: 93 to 94 °C

Req: Sample O=C1c2ccccc2C(=O)N1CC1CC1c1cccc2nscc12 (stereo unspecified) — what was its melting point?
Resp: 148 to 151 °C

Req: Sample `CC1(C)OC[C@H](Cc2ccccc2)N1C(=O)Cn1cc(I)cn1` — what was its melting point?
Resp: 117 to 120 °C

Req: Sample `Cc1ccc(-c2ccc(C(=O)c3ccc(Cl)cc3Cl)cc2)cc1` — what was its melting point?
Resp: 184 to 185 °C

Req: Sample `CCCc1c(C(=O)O)c(=O)cc(-c2ccccc2)n1C` — what was its melting point?
Resp: 150 °C

----------
Each record here notes measured melting point.

Solved entries (count: 4):
CC(=O)N1CCc2ccc(C(=O)CCCC3CCN(Cc4ccccc4Cl)CC3)cc2CC1 :: 99 to 100 °C
COc1cccc(-c2cn(N)c(N)n2)c1 :: 181 to 182 °C
CC1(C)C(c2ccncc2)=Nc2ccc(-c3ccc(=O)[nH]n3)cc21 :: 305 to 307 °C
COc1ccc(C[C@](C)(N[C@@H](C(N)=O)c2ccccc2)C(N)=O)cc1 :: 106 to 108 °C

Next up:
Req: Sample `COC(=O)c1cnoc1-c1ccc(F)cc1` — what was its melting point?
Resp: 92 to 93 °C

----------
Each record here notes measured melting point.

Req: Sample `COc1cc(Cl)cnc1OCC#Cc1ccc(Cl)nc1` — what was its melting point?
Resp: 94 °C

Req: Sample `NCCOc1nc2ccccc2n1C1CCN(C2(c3ccccc3)CCCCCC2)CC1` — what was its melting point?
Resp: 180 to 184 °C

Req: Sample `COc1ccc(NN=C(Sc2ccccc2)C(C)=O)cc1` — what was its melting point?
Resp: 120 to 123 °C

Req: Sample `Cc1ccc(-c2cc(=S)ss2)nn1` — what was its melting point?
Resp: 242 °C

Req: Sample Cc1ccc(NC2CCOC2=O)c(C(=O)O)c1 (stereo not given) — what was its melting point?
Resp: 199 to 200 °C

Req: Sample `CCOC(=O)c1cc2c(cn1)[nH]c1ccc(N(C)C)cc12` — what was its melting point?
Resp: 220 to 221 °C

Req: Sample `CC(C)(C)c1cc(NC(=O)Nc2ccccc2C(=O)NC2CCN(C(c3ccccc3)c3ccccc3)CC2)cc(C(C)(C)C)c1O` — what was its melting point?
Resp: 218 to 225 °C

Req: Sample `c1cnc2c(c1)-c1ncccc1C2(Cc1ccncc1)Cc1ccncc1` — what was its melting point?
Resp: 133 to 137 °C

Req: Sample COc1ccc(N2CCN(CCC3OCCc4c(C(N)=O)cccc43)CC2)cc1 (stereo not given) — what was its melting point?
Resp: 185 to 186 °C

Req: Sample `Oc1ccc(Cn2cnc3c(-c4ccco4)ncnc32)cc1` — what was its melting point?
Resp: 231 to 233 °C

----------
Each record here notes measured melting point.

Solved entries (count: 3):
CC1SC(=O)NN=C1c1ccc2c(c1)C(=Cc1cccnc1)C(=O)N2 (stereo not given) :: 285 °C
CCn1cc(CN(C(=O)C2CCCc3c(O)cccc32)c2ccc(OC)cc2)cn1 (stereo not given) :: 211 to 213 °C
CCc1nc2c(N)nc3cc(OCCc4c[nH]c5ccccc45)ccc3c2s1 :: 218 to 220 °C

Req: Sample `CCOc1cc(O)c2cc(C(C)=O)ccc2n1` — what was its melting point?
Resp: 210 to 219 °C

Req: Sample `Oc1ccc(OCCN2CCC(CC34CC5CC(CC(C5)C3)C4)CC2)cc1` — what was its melting point?
Resp: 178 to 179 °C

----------
PROPERTY_MEASURED: melting point

Solved entries (count: 5):
O=C1CC2(CCOc3ccc(Cl)cc32)C(=O)N1 (stereo not given) :: 225 to 226 °C
CCN1CCCC1CNC(=O)c1ccc(O)c(Cl)c1 (stereo not given) :: 228 °C
CCC(=O)OCC1OC(n2cnc3c(OC)nc(N)nc32)C(O)C1O (stereo not given) :: 124 °C
O=C(O)c1cc(Cl)c(Cl)nc1Cl :: 164 to 168 °C
COc1cc(OC)c2c(=O)[nH]c(-c3ccc4[nH]c(CCO)cc4c3)nc2c1 :: 237 to 238 °C

Req: Sample `CN1CCN(c2ccccc2C=C2CCN(c3ccccc3)C2=O)CC1` — what was its melting point?
Resp: 104 to 106 °C

Req: Sample `COc1ccccc1CNc1ccc2cc(Nc3nnn(C(C)(C)C)n3)ccc2n1` — what was its melting point?
Resp: 156 °C

----------
Each record here notes measured melting point.

Req: Sample `CC1(C)CCC(C)(C)c2cc(C#Cc3ccc(CO)cc3)ccc21` — what was its melting point?
Resp: 115 to 117 °C

Req: Sample `CN(C(=S)Nc1ccc(NNC=O)cc1)c1ccccc1` — what was its melting point?
Resp: 137 to 139 °C

Req: Sample `CCCCOc1ncc(I)cc1C(N)=S` — what was its melting point?
Resp: 140 to 148 °C

Req: Sample CCn1cc(C(=O)O)c(=O)c2cc(F)c(N3CCOC(CCl)C3)c(F)c21 (stereo not drawn) — what was its melting point?
Resp: 212 to 215 °C

Req: Sample `O=C(NO)OCC1c2ccccc2-c2ccccc21` — what was its melting point?
Resp: 160 °C

Req: Sample `CNS(=O)(=O)Cc1ccccc1Br` — what was its melting point?
Resp: 72.5 to 74 °C

Req: Sample `COC(=O)CCCCC(=O)Nc1ccc(C(=O)NN=C2C(=O)Nc3ccc(I)cc32)cc1` — what was its melting point?
Resp: 277 °C

Req: Sample `Clc1ccc2cccc(-c3cccc4ccccc34)c2n1` — what was its melting point?
Resp: 133 to 135 °C

Req: Sample `Cc1cc(O)cnc1Cl` — what was its melting point?
Resp: 126 to 128 °C

Req: Sample `CCn1ccccc1=S` — what was its melting point?
Resp: 50 °C

----------
Each record here notes measured melting point.

Solved entries (count: 5):
CNCc1ccc(C2CCN(c3c(F)c(N)c4c(=O)c(C(=O)O)cn(C5CC5)c4c3F)C2)cc1 (stereo not given) :: 201 to 205 °C
O=C(O)C=CC(=O)OC1CCN(C(=O)Cn2c(=O)sc3ccc(Cl)cc32)CC1 :: 197 to 198 °C
CCCCc1cn2nc3c(c(=O)n(CCC)c(=O)n3Cc3ccccc3)c2n1C :: 139 to 140 °C
C=CCOC(=O)N1C[C@@H](S)C[C@H]1CNC(=O)c1ccc(C(=O)NCc2ccc(Cl)c(Cl)c2)cn1 :: 101 to 105 °C
COc1ccc(Cl)cc1C1(F)C(=O)Nc2ccc(C)cc21 (stereo not given) :: 193 to 195 °C

Req: Sample `CN(C(=O)c1ccc2nonc2c1)[C@H]1CC[C@H](n2ncnn2)CC1` — what was its melting point?
Resp: 172 to 175 °C

Req: Sample `Brc1ccc(Br)c2nonc12` — what was its melting point?
Resp: 88 to 92 °C

Req: Sample `O=C1N(N2CCOCC2)c2ccccc2C1(Cc1ccnc(F)c1)Cc1ccnc(F)c1` — what was its melting point?
Resp: 198 to 203 °C

Req: Sample `OCc1ccc(-c2cccnc2)s1` — what was its melting point?
Resp: 89 to 90 °C

Req: Sample COc1cc(OC)c2c3c(n(Cc4ccccc4)c2c1)CCCC3C(N)=O (stereo not given) — what was its melting point?
Resp: 190 to 192 °C
